Entries and their log10 of IC50
system_name: MNK1 (Homo sapiens)
test_name: MNK inhibition assay (Z-Lyte kinase assay, Ser/Thr 7 peptide)
experimental_parameters: recombinant GST-MNK1, 3 hours at 31° C.
# log10 transformed; quantity=IC50; unit=nM

> print(dat)
                                   compound  recorded.result
1  NC1CCN(Cc2cc([N+](=O)[O-])c3cncc(-c4cc5ccccc5o4)c3c2)CC1             2.49
2  Nc1ncc2ccc(CNc3ccnc4ccccc34)cc2c1-c1cc2ccccc2o1             1.73
3  NC1CCN(Cc2ccc3cncc(-c4cc5ccccc5s4)c3c2)CC1             2.56
4  Nc1ncc(-c2cc(Cl)cc(Cl)c2)c2cc(CN3CCC(N)CC3)ccc12             3.76
5  Oc1ccc(-c2cncc3ccc(CNC4CCCNC4)cc23)cc1 (stereo not drawn)             2.70

Quick check: log10 of IC50 on MNK1 (Homo sapiens), item N[C@H]1CC[C@H](Nc2cc(Cl)c3cncc(-c4ccccc4)c3c2)CC1 ?
1.45

Quick check: log10 of IC50 on MNK1 (Homo sapiens), item Nc1cc[n+](Cc2ccc3cncc(-c4cc5ccccc5o4)c3c2)c2ccccc12 ?
1.18

Quick check: log10 of IC50 on MNK1 (Homo sapiens), item Nc1ncc(-c2ccccc2)c2cc(O[C@H]3CC[C@H](N)CC3)cc(Cl)c12 ?
1.58

Quick check: log10 of IC50 on MNK1 (Homo sapiens), item NC1CCC(NCc2ccc3cncc(-c4ccc(O)cc4)c3c2)C1 (stereo not drawn) ?
2.70

----------
system_name: MNK1 (Homo sapiens)
test_name: MNK inhibition assay (Z-Lyte kinase assay, Ser/Thr 7 peptide)
experimental_parameters: recombinant GST-MNK1, 3 hours at 31° C.
Entries and their pIC50
Please express pIC50 as -log10 of the molar concentration.

For orientation, consider the following solved cases.
> print(dat)
                                   compound          system.name  recorded.result
1  NC1CCN(Cc2ccc3cncc(-c4cc5ccccc5o4)c3c2)CC1(F)F (stereo not drawn) [Example 263]  MNK1 (Homo sapiens)             6.15
2  Nc1cccc(-c2cncc3ccc(CN4CCC(N)CC4)cc23)c1 [Example 3]  MNK1 (Homo sapiens)             6.07
3  c1ccc2oc(-c3cncc4ccc(NCC5CCCNC5)cc34)cc2c1 (stereo not drawn) [Example 214]  MNK1 (Homo sapiens)             6.27
4  CN(c1ccc2cncc(-c3cc4ccccc4o3)c2c1)C1CCNCC1 [Example 211]  MNK1 (Homo sapiens)             6.37
5  NC1CCN(Cc2ccc3cncc(-c4cccc(CO)c4)c3c2)CC1 [Example 182]  MNK1 (Homo sapiens)             5.93

Report pIC50 for NC1CCN(Cc2ccc3cncc(-c4cc5cc(Cl)ccc5o4)c3c2)CC1 [Example 188] please.
6.47

Report pIC50 for N[C@H]1CC[C@H](Nc2ccc3c(=O)[nH]cc(-c4ccccc4)c3c2)CC1 [Example 88] please.
6.77

Report pIC50 for Nc1ncc(-c2ccccc2)c2cc(N[C@H]3CC[C@H](N)CC3)ccc12 [Example 317] please.
6.51

Report pIC50 for Oc1ccc(-c2cncc3ccc(CN4CCC(O)CC4)cc23)cc1 [Example 23] please.
5.63

----------
system_name: MNK1 (Homo sapiens)
test_name: MNK inhibition assay (Z-Lyte kinase assay, Ser/Thr 7 peptide)
experimental_parameters: recombinant GST-MNK1, 3 hours at 31° C.
measure_name: IC50

> print(dat)
                               input.smiles          system.name  recorded.result
1  Nc1cc(-c2cncc3ccc(CN4CCC(N)CC4)cc23)ccn1  MNK1 (Homo sapiens)          1910 nM

Quick check: IC50 on MNK1 (Homo sapiens), item NCc1ccc(-c2cncc3ccc(CN4CCC(N)CC4)cc23)cc1 ?
306 nM

Quick check: IC50 on MNK1 (Homo sapiens), item CC(=O)c1ccc(-c2cncc3ccc(CN4CCC(N)CC4)cc23)cc1 ?
849 nM

Quick check: IC50 on MNK1 (Homo sapiens), item c1cncc(NCc2ccc3cncc(-c4cc5ccccc5o4)c3c2)c1 ?
135 nM

Quick check: IC50 on MNK1 (Homo sapiens), item NC1CCN(Cc2ccc3cncc(-c4ccc5c(c4)OCO5)c3c2)CC1 ?
212 nM

Quick check: IC50 on MNK1 (Homo sapiens), item NC1CCN(Cc2ccc3cncc(-c4cccc(O)c4)c3c2)CC1 ?
266 nM

Quick check: IC50 on MNK1 (Homo sapiens), item N[C@H]1CC[C@H](NC(=O)c2ccc3cncc(-c4cc5ccccc5o4)c3c2)CC1 ?
284 nM

Quick check: IC50 on MNK1 (Homo sapiens), item NC1CCN(Cc2ccc3cncc(-c4ccc(CO)cc4)c3c2)CC1 ?
522 nM

Quick check: IC50 on MNK1 (Homo sapiens), item Nc1ccc[n+](Cc2ccc3cncc(-c4cc5ccccc5o4)c3c2)c1 ?
143 nM

Quick check: IC50 on MNK1 (Homo sapiens), item Nc1cc[n+](Cc2ccc3c(N)ncc(-c4cc5ccccc5o4)c3c2)cc1 ?
17 nM

Quick check: IC50 on MNK1 (Homo sapiens), item Nc1ccc(NCc2ccc3cncc(-c4cc5ccccc5o4)c3c2)cc1 ?
384 nM

Quick check: IC50 on MNK1 (Homo sapiens), item N[C@H]1CC[C@H](Nc2ccc3cncc(-c4cc5ccccc5o4)c3c2)CC1 ?
58 nM

Quick check: IC50 on MNK1 (Homo sapiens), item NC1CCN(Cc2cc3c(-c4cc5ccccc5o4)cncc3c(Cl)c2Cl)CC1 ?
536 nM

Quick check: IC50 on MNK1 (Homo sapiens), item NC1CCN(Cc2ccc3cncc(-c4ccc5cccnc5c4)c3c2)CC1 ?
331 nM

Quick check: IC50 on MNK1 (Homo sapiens), item c1coc(-c2cncc3ccc(CN4CCNCC4)cc23)c1 ?
96 nM

----------
Entries and their log10 of IC50
system_name: MNK1 (Homo sapiens, UniProt Q9BUB5)
Construct: purchased Life Technologies or Carna Biosciences PV6023 or 02-145; host or cells: baculovirus infected insect cells
Sequence (Q9BUB5 whole entry): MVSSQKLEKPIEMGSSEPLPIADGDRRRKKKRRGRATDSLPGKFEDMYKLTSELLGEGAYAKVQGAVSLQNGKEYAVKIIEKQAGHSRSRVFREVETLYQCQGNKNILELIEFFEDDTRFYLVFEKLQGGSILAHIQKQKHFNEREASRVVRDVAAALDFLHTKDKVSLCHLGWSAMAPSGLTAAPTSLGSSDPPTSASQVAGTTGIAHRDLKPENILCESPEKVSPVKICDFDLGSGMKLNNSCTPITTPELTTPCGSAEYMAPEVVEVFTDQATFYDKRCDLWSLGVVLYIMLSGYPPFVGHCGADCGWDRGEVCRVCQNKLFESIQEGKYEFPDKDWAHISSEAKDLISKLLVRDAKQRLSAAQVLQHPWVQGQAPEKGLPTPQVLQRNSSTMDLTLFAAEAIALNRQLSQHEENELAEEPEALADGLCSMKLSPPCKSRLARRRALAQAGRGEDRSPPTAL
test_name: MNK inhibition assay (Z-Lyte kinase assay, Ser/Thr 7 peptide)
Format: biochemical
experimental_parameters: recombinant GST-MNK1, 3 hours at 31° C.
# log10 transformed; quantity=IC50; unit=µM

For orientation, consider the following solved cases.
> print(dat)
                               input.smiles   measure.name  recorded.result
1  N[C@@H]1CCC[C@H](Nc2ccc3cncc(-c4cc5ccccc5o4)c3c2)C1  log10 of IC50            -0.79
2    CN(C)CCCNCc1ccc2cncc(-c3ccc(O)cc3)c2c1  log10 of IC50            -0.66
3  Nc1ncc2ccc(CN3CCC(N)CC3)cc2c1-c1ccc(O)cc1  log10 of IC50            -0.85
4  NC1CCN(C(=O)c2ccc3cncc(-c4ccc(O)cc4)c3c2)CC1  log10 of IC50            -0.45

Okay, now this molecule:
Report log10 of IC50 for N[C@H]1CC[C@H](CNc2ccc3cncc(-c4cc5ccccc5o4)c3c2)CC1 please.
0.34

----------
Entries and their pIC50
system_name: MNK1 (Homo sapiens)
test_name: MNK inhibition assay (Z-Lyte kinase assay, Ser/Thr 7 peptide)
experimental_parameters: recombinant GST-MNK1, 3 hours at 31° C.
Please express pIC50 as -log10 of the molar concentration.

For orientation, consider the following solved cases.
> print(dat)
                                   compound  recorded.result
1  Nc1ncc(-c2cccc(Cl)c2)c2cc(CN3CCC(N)CC3)ccc12 [Example 216]             5.96
2  c1ccc2oc(-c3cncc4ccc(CN5CCCCC5)nc34)cc2c1 [Example 301]             5.77
3  NC1CCN(Cc2ccc3cncc(-c4ccc(NC(=O)Nc5cccnc5)cc4)c3c2)CC1 [Example 117]             6.22
4  NC1CCN(Cc2cc3c(-c4ccccc4)cncc3cc2O)CC1 [Example 265]             6.51
5  CN(c1ccc2cncc(-c3cc4ccccc4o3)c2c1)C1CCC(N)CC1 (stereo not drawn) [Example 210]             7.66
6  NC1CCN(Cc2ccc3cncc(-c4nc5ccccc5s4)c3c2)CC1 [Example 227]             5.99
7  COc1cc2cncc(-c3ccccc3)c2cc1CN1CCC(N)CC1 [Example 266]             7.23
8  Nc1ncc(-c2cc(F)cc(F)c2)c2cc(CN3CCC(N)CC3)ccc12 [Example 222]             5.72

Report pIC50 for Cn1nccc1NCc1ccc2cncc(-c3cc4ccccc4o3)c2c1 [Example 101] please.
6.74
